Test system: pigweed
methodSummary: Test C pre-/postemergence herbicide test
Assay type: in vivo, Amaranthus retroflexus
conditionNotes: Postemergence; 125 g ai/ha; scale 0 to 100 (0 no effect, 100 complete control)
// reported Plant response rating, Pigweed per item

{"compound": "Cc1ccccc1NC(=O)C1C(=O)NCC1c1cccc(C(F)(F)F)c1 (racemic) [Compound 109]", "reportedResult": 5}
{"compound": "O=C1NCC(c2ccc(C(F)(F)F)cc2)C1C(=O)Nc1cccc(F)c1F (racemic) [Compound 202]", "reportedResult": 85}
{"compound": "O=C1NCC(c2ccc(C(F)(F)F)cc2)C1C(=O)Nc1cccc(F)c1F (stereo not drawn) [Compound 80]", "reportedResult": 60}
{"compound": "O=C1NC[C@H](c2cccc(C(F)(F)F)c2)[C@H]1C(=O)Nc1cccc(F)c1F [Compound 206]", "reportedResult": 50}
{"compound": "O=C1NCC(c2ccc(F)c(F)c2)C1C(=O)Nc1cccc(F)c1F (stereo not drawn) [Compound 17]", "reportedResult": 0}

Note: attention shifts to another entry.
Req: Can you look up Plant response rating, Pigweed on pigweed for O=C1NCC(c2cccc(Br)c2)C1C(=O)Nc1ccc(F)c(F)c1F (stereo not drawn) [Compound 310] ?
Resp: 60
